Overview of reported IC50 across a group of molecules:
system: BRD4-2 (Homo sapiens, UniProt O60885)
Construct: BRD4-2
assayProcedure: BRD4-2 in vitro inhibition
Format: binding

Solved entries (count: 5):
## Input Consider the molecule CN(C)C(=O)c1cc2cnc(Nc3cncc(-c4csc5c(=O)cc(N6CCOCC6)oc45)c3)nc2n1C1CCCC1 [Compound 19] and give its measured IC50.
## Output 1000 to 10000 nM

## Input Next up: O=C(C1=CCCC1)N1CCOc2ccc(-c3csc4c(=O)cc(N5CCOCC5)oc34)cc21 [Compound 40]
## Output < 500 nM

## Input // same read-out, input: CC(=O)c1c(C)c2cnc(Nc3ccc(-c4csc5c(=O)cc(N6CCOCC6)oc45)cc3)nc2n(C2CCCC2)c1=O [Compound 25-2]
## Output < 500 nM

## Input Now consider Cc1nn(-c2ccnc(Nc3ccc(-c4csc5c(=O)cc(N6CCOCC6)oc45)cc3)n2)cc1CN(C)CCO [Compound 59] and answer again.
## Output 1000 to 10000 nM

## Input CN(C)C(=O)c1cc2cnc(Nc3csc4c(=O)cc(N5CCOCC5)oc34)nc2n1C1CCCC1 [Compound 12] , same question.
## Output 10000 to 45000 nM

New cases:
## Input Entry COc1cc(NC(C)=O)cc(-c2csc3c(=O)cc(N4CCOCC4)oc23)c1 [Compound 33] : reported IC50 = ?
## Output 1000 to 10000 nM

---

Listed here: compounds with reported IC50 for BRD4-2 (Homo sapiens).

Sample answers from the record:
## Input Field request: IC50 | item: C=CS(=O)(=O)N(c1cccc(-c2csc3c(=O)cc(N4CCOCC4)oc23)c1)S(=O)(=O)C=C [Compound 50]
## Output < 0.5 µM

## Input Now consider COc1ccc(C#Cc2csc3c(=O)cc(N4CCOCC4)oc23)cc1 [Compound 5-2] and answer again.
## Output 1 to 10 µM

## Input // same read-out, input: CN(C)C(=O)c1cc2cnc(Nc3ccc(-c4csc5c(=O)cc(N6CCOCC6)oc45)cn3)nc2n1C1CCCC1 [Compound 8]
## Output < 0.5 µM

Alright, here's another compound for you.
## Input Request the reported IC50 associated with Cc1nn(-c2ccnc(Nc3ccc(-c4csc5c(=O)cc(N6CCOCC6)oc45)cc3)n2)cc1CN1CC(O)C1 [Compound 52]
## Output > 45 µM
